Parameter pEC50: see the listing below.
# ASSAYED_SYSTEM: rabbit duodenal smooth muscle strip (Oryctolagus cuniculus, UniProt G1T803)
# Sequence (G1T803 1-400): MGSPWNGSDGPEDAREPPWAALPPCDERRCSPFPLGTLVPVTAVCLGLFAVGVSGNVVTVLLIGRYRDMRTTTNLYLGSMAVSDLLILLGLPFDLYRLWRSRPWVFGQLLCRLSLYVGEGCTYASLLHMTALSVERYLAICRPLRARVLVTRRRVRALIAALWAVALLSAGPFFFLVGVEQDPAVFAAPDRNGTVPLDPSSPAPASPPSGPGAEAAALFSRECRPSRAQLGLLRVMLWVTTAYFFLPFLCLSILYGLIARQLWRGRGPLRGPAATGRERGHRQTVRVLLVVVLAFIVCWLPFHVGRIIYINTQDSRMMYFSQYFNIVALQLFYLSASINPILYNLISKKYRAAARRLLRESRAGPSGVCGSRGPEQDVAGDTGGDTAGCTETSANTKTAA
# ASSAY_NAME: Rabbit duodenal smooth muscle strip tissue bath assay (contractility)
# Format: cell-based
# REPORTED_CONDITIONS: negative logarithm of dose giving 50% of maximal response to motilin; isotonic contraction of rabbit duodenum segments
# Experimental: The experimental protocol consisted of an equilibration period of 1 hour; a challenge with 10^-4 M acetylcholine followed by a wash-out period; a cumulative dose-response curve of a compound with, at the end, the addition of 10^-7 M motilin; and finally 10^-4 M acetylcholine. If the final response to 10^-4 M acetylcholine differed by more than 5% from the initial response, the results were discarded.
Positions of bridges follow the written chain, without caps; N, C: chain ends. Non-standard residues stand in square brackets, D forms with d. Residues, ends and D or L forms follow the SMILES beside them. *: point of attachment. X1 = C[N+](C)(C)[C@@H](Cc1ccccc1)C(=O)*
Answer using only a numeral; do not append any unit.

COMPOUND	ASSAYED_SYSTEM	READOUT_VALUE
CC[C@H](C)[C@H](NC(=O)[C@@H]1CCCN1C(=O)[C@@H](NC(=O)[C@H](Cc1ccccc1)[N+](C)(C)C)C(C)C)C(=O)N[C@@H](Cc1ccccc1)C(=O)N[C@H](C(=O)N[C@@H](Cc1ccc(O)cc1)C(=O)NCC(=O)N[C@@H](CCC(=O)O)C(=O)N[C@H]1CC(=O)NCCCC[C@@H](C(=O)N[C@@H](CCCCN)C(N)=O)NC(=O)[C@H](CC(C)C)NC(=O)[C@@H](CCCNC(=N)N)NC(=O)[C@H](C)NC1=O)[C@@H](C)O [SEQ ID NO:19] (X1-VPIFTYGEDA[dR]LKK-NH2; lactam 9-13)	rabbit duodenal smooth muscle strip (Oryctolagus cuniculus, UniProt G1T803)	7.72

Shift focus to the following entry.
Input: # get_value(readout='pEC50', item= CC[C@H](C)[C@H](NC(=O)[C@@H]1CCCN1C(=O)[C@@H](NC(=O)[C@@H](N)Cc1ccccc1)C(C)C)C(=O)N[C@@H](Cc1ccccc1)C(=O)N[C@H](C(=O)N[C@@H](Cc1ccc(O)cc1)C(=O)NCC(=O)N[C@@H](CCC(=O)O)C(=O)N[C@H]1CC(=O)NCCCC[C@@H](C(N)=O)NC(=O)[C@H](CC(C)C)NC(=O)[C@H](CCCNC(=N)N)NC(=O)[C@H](CCC(N)=O)NC1=O)[C@@H](C)O [SEQ ID NO:6] (H-FVPIFTYGEDQRLK-NH2; lactam 10-14) )
Output: 7.77

* * *

# ASSAYED_SYSTEM: rabbit duodenal smooth muscle strip (Oryctolagus cuniculus, UniProt G1T803)
# ASSAY_NAME: Rabbit duodenal smooth muscle strip tissue bath assay (contractility)
# Format: cell-based
# REPORTED_CONDITIONS: negative logarithm of dose giving 50% of maximal response to motilin; isotonic contraction of rabbit duodenum segments
Positions of bridges follow the written chain, without caps; N, C: chain ends. Non-standard residues stand in square brackets, D forms with d. Residues, ends and D or L forms follow the SMILES beside them. *: point of attachment. X1 = C[N+](C)(C)[C@@H](Cc1ccccc1)C(=O)*; NMeF = CN[C@@H](Cc1ccccc1)C(=O)O
Parameter pEC50: see the listing below.
Answer using only a numeral; do not append any unit.

Worked cases, answers included:
MOLECULE	MEASURED_ENDPOINT	READOUT_VALUE
CC[C@H](C)[C@H](NC(=O)[C@@H]1CCCN1C(=O)[C@@H](NC(=O)[C@H](Cc1ccccc1)[N+](C)(C)C)C(C)C)C(=O)N[C@@H](Cc1ccccc1)C(=O)N[C@H](C(=O)N[C@@H](Cc1ccc(O)cc1)C(=O)NCC(=O)N[C@@H](CCC(=O)O)C(=O)N[C@H]1CCC(=O)NCCCC[C@@H](C(=O)N[C@@H](CCCCN)C(N)=O)NC(=O)[C@H](CC(C)C)NC(=O)[C@H](CCCNC(=N)N)NC(=O)[C@H](C)NC1=O)[C@@H](C)O [SEQ ID NO:21] (X1-VPIFTYGEEARLKK-NH2; lactam 9-13)	pEC50	7.76
CC[C@H](C)[C@H](NC(=O)[C@@H]1CCCN1C(=O)[C@@H](NC(=O)[C@H](Cc1ccccc1)NC)C(C)C)C(=O)N[C@@H](Cc1ccccc1)C(=O)N[C@H](C(=O)N[C@@H](Cc1ccc(O)cc1)C(=O)NCC(=O)N[C@@H](CCC(=O)O)C(=O)N[C@H]1CC(=O)NCCCC[C@@H](C(=O)N[C@@H](CCCCN)C(N)=O)NC(=O)[C@H](CC(C)C)NC(=O)[C@H](CCCNC(=N)N)NC(=O)[C@H](C)NC1=O)[C@@H](C)O [SEQ ID NO:8] (H-[NMeF]VPIFTYGEDARLKK-NH2; lactam 10-14)	pEC50	7.69

Shift focus to the following entry.
Input: # get_value(readout='pEC50', item= CC[C@H](C)[C@H](NC(=O)[C@@H]1CCCN1C(=O)[C@@H](NC(=O)[C@H](Cc1ccccc1)NC)C(C)C)C(=O)N[C@@H](Cc1ccccc1)C(=O)N[C@H](C(=O)N[C@@H](Cc1ccc(O)cc1)C(=O)NCC(=O)N[C@@H](CCC(=O)O)C(=O)N[C@H]1CC(=O)NCCCC[C@@H](C(N)=O)NC(=O)[C@H](CC(C)C)NC(=O)[C@H](CCCNC(=N)N)NC(=O)[C@H](C)NC1=O)[C@@H](C)O [SEQ ID NO:17] (H-[NMeF]VPIFTYGEDARLK-NH2; lactam 10-14) )
Output: 7.95

* * *

# ASSAY_NAME: In vitro stability testing in 2% hog kidney homogenate
# Type: in vitro ADME
# REPORTED_CONDITIONS: pig, kidney or brush border membranes, pH 7
Positions of bridges follow the written chain, without caps; N, C: chain ends. Non-standard residues stand in square brackets, D forms with d. Residues, ends and D or L forms follow the SMILES beside them. *: point of attachment. X1 = C[N+](C)(C)[C@@H](Cc1ccccc1)C(=O)*
MEASURED_ENDPOINT: half-life at 0.5 mg/ml (min)
State just the number; it will be interpreted in min.

Input: # get_value(readout='half-life at 0.5 mg/ml', item= CC[C@H](C)[C@H](NC(=O)[C@@H]1CCCN1C(=O)[C@@H](NC(=O)[C@H](Cc1ccccc1)[N+](C)(C)C)C(C)C)C(=O)N[C@@H](Cc1ccccc1)C(=O)N[C@H](C(=O)N[C@@H](Cc1ccc(O)cc1)C(=O)NCC(=O)N[C@@H](CCC(=O)O)C(=O)N[C@H]1CCC(=O)NCCCC[C@@H](C(=O)N[C@@H](CCCCN)C(N)=O)NC(=O)[C@H](CC(C)C)NC(=O)[C@@H](CCCNC(=N)N)NC(=O)[C@H](C)NC1=O)[C@@H](C)O [SEQ ID NO:20] (X1-VPIFTYGEEA[dR]LKK-NH2; lactam 9-13) )
Output: 49

* * *

Parameter pEC50: see the listing below.
# ASSAYED_SYSTEM: rabbit duodenal smooth muscle strip (Oryctolagus cuniculus)
# ASSAY_NAME: Rabbit duodenal smooth muscle strip tissue bath assay (contractility)
# Type: cell-based
# REPORTED_CONDITIONS: negative logarithm of dose giving 50% of maximal response to motilin; isotonic contraction of rabbit duodenum segments
Positions of bridges follow the written chain, without caps; N, C: chain ends. Non-standard residues stand in square brackets, D forms with d. Residues, ends and D or L forms follow the SMILES beside them. *: point of attachment. X1 = C[N+](C)(C)[C@@H](Cc1ccccc1)C(=O)*; NMeF = CN[C@@H](Cc1ccccc1)C(=O)O; dNMeF = CN[C@H](Cc1ccccc1)C(=O)O
Answer using only a numeral; do not append any unit.

Worked cases, answers included:
COMPOUND	ASSAYED_SYSTEM	pEC50
CC[C@H](C)[C@H](NC(=O)[C@@H]1CCCN1C(=O)[C@@H](NC(=O)[C@H](Cc1ccccc1)NC)C(C)C)C(=O)N[C@@H](Cc1ccccc1)C(=O)N[C@H](C(=O)N[C@@H](Cc1ccc(O)cc1)C(=O)NCC(=O)N[C@@H](CCC(=O)O)C(=O)N[C@H]1CC(=O)NCCCC[C@@H](C(N)=O)NC(=O)[C@H](CC(C)C)NC(=O)[C@@H](CCCNC(=N)N)NC(=O)[C@H](C)NC1=O)[C@@H](C)O [SEQ ID NO:23] (H-[NMeF]VPIFTYGEDA[dR]LK-NH2; lactam 10-14)	rabbit duodenal smooth muscle strip (Oryctolagus cuniculus)	7.89
CC[C@H](C)[C@H](NC(=O)[C@@H]1CCCN1C(=O)[C@@H](NC(=O)[C@H](Cc1ccccc1)NC)C(C)C)C(=O)N[C@@H](Cc1ccccc1)C(=O)N[C@H](C(=O)N[C@@H](Cc1ccc(O)cc1)C(=O)NCC(=O)N[C@@H](CCC(=O)O)C(=O)N[C@H]1CC(=O)NCCCC[C@@H](C(=O)N[C@@H](CCCCN)C(N)=O)NC(=O)[C@H](CC(C)C)NC(=O)[C@@H](CCCNC(=N)N)NC(=O)[C@H](C)NC1=O)[C@@H](C)O [SEQ ID NO:12] (H-[NMeF]VPIFTYGEDA[dR]LKK-NH2; lactam 10-14)	rabbit duodenal smooth muscle strip (Oryctolagus cuniculus)	7.81
CC[C@H](C)[C@H](NC(=O)[C@@H]1CCCN1C(=O)[C@@H](NC(=O)[C@H](Cc1ccccc1)[N+](C)(C)C)C(C)C)C(=O)N[C@@H](Cc1ccccc1)C(=O)N[C@H](C(=O)N[C@@H](Cc1ccc(O)cc1)C(=O)NCC(=O)N[C@@H](CCC(=O)O)C(=O)N[C@H]1CC(=O)NCCCC[C@@H](C(N)=O)NC(=O)[C@H](CC(C)C)NC(=O)[C@H](CCCNC(=N)N)NC(=O)[C@H](C)NC1=O)[C@@H](C)O [SEQ ID NO:16] (X1-VPIFTYGEDARLK-NH2; lactam 9-13)	rabbit duodenal smooth muscle strip (Oryctolagus cuniculus)	6.98

Input: # get_value(readout='pEC50', item= CC[C@H](C)[C@H](NC(=O)[C@@H]1CCCN1C(=O)[C@@H](NC(=O)[C@H](Cc1ccccc1)[N+](C)(C)C)C(C)C)C(=O)N[C@@H](Cc1ccccc1)C(=O)N[C@H](C(=O)N[C@@H](Cc1ccc(O)cc1)C(=O)NCC(=O)N[C@@H](CCC(=O)O)C(=O)N[C@H]1CC(=O)NCCCC[C@@H](C(=O)N[C@H](CCCCN)C(N)=O)NC(=O)[C@H](CC(C)C)NC(=O)[C@H](CCCNC(=N)N)NC(=O)[C@H](C)NC1=O)[C@@H](C)O [SEQ ID NO:11] (X1-VPIFTYGEDARLK[dK]-NH2; lactam 9-13) )
Output: 7.89

Input: # get_value(readout='pEC50', item= CC[C@H](C)[C@H](NC(=O)[C@@H]1CCCN1C(=O)[C@@H](NC(=O)[C@@H](Cc1ccccc1)NC)C(C)C)C(=O)N[C@@H](Cc1ccccc1)C(=O)N[C@H](C(=O)N[C@@H](Cc1ccc(O)cc1)C(=O)NCC(=O)N[C@@H](CCC(=O)O)C(=O)N[C@H]1CCC(=O)NCCCC[C@@H](C(N)=O)NC(=O)[C@H](CC(C)C)NC(=O)[C@H](CCCNC(=N)N)NC(=O)[C@H](CCC(N)=O)NC1=O)[C@@H](C)O [SEQ ID NO:13] (H-[dNMeF]VPIFTYGEEQRLK-NH2; lactam 10-14) )
Output: 6.87
